Test system: S. aureus 29213
Where a name gives a salt, the structure may show the parent alone.
Please use Met for MIC under 0.5 µg/mL and Not met for everything else, ties included.

-- ask Is 0.5 µg/mL strictly greater than the molecule's reported MIC? molecule: Cc1c(N2CC[C@@H](C3(N)CC3)C2)c(F)cn2c(=O)n(N)c(=O)c(C3CC3)c12 [Compound 4i]
-- reply Met

-- ask Is 0.5 µg/mL strictly greater than the molecule's reported MIC? molecule: Cc1c(N2CC(C(C)N)C(C)(C)C2)c(F)cn2c(=O)n(N)c(=O)c(C3CC3)c12 (stereo not shown) [Compound 5c, hydrochloride]
-- reply Not met

-- ask Is 0.5 µg/mL strictly greater than the molecule's reported MIC? molecule: Cc1c(N2CC[C@@H]([C@H](C)N)C2)c(F)cn2c(=O)n(N)c(=O)c(C3CC3)c12.Cl [Compound 5b]
-- reply Met

-- ask Is 0.5 µg/mL strictly greater than the molecule's reported MIC? molecule: Cc1c(N2CCCC2)c(F)cn2c(=O)n(N)c(=O)c(C3CC3)c12 [Compound 4g]
-- reply Not met

-- ask Is 0.5 µg/mL strictly greater than the molecule's reported MIC? molecule: CN[C@@H](C)[C@@H]1CCN(c2c(F)cn3c(=O)n(N)c(=O)c(C4CC4)c3c2C)C1 [Compound 4f]
-- reply Met
